Source listed as patent US7635696B2.

Entries annotated with measured log10(IC50)
# Study Target: Human Dopamine D2L receptor (Homo sapiens)
# Construct: expressed in transfected cells; host or cells: CHO cells
# Sequence (P14416 whole entry): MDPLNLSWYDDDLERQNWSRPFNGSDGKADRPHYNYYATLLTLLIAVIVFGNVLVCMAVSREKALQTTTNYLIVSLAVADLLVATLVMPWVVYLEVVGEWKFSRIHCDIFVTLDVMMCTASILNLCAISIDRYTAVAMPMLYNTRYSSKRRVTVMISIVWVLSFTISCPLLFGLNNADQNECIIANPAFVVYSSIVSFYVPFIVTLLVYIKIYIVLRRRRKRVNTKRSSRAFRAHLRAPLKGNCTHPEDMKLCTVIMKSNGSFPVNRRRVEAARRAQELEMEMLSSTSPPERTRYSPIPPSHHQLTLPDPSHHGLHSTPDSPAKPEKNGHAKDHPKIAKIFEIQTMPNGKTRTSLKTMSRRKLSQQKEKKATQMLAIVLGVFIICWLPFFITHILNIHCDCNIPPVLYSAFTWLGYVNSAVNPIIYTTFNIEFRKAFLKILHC
# Assay Protocol: Binding experiment for dopamine D2 receptor ([3H]Spiperone)
# Study Conditions: D2L-transfected CHO cell membranes, read-out: pIC50 D2 (converted)
Could you please treat all values as log10 of IC50 in nM?

Examples with answers:
>>> print(df.to_string())
                                   molecule  observed
0  COc1cc2c(cc1OC)C1=NO[C@@H](CN3CC=C(c4cn(C)c5ccccc45)CC3)[C@@H]1CO2 (single isomer, unassigned)      3.30
1  COc1cc2c(cc1OC)C1=NOC(CN3CCC(c4coc5cc(F)ccc45)CC3)C1CO2 (centres unmarked)      2.00
2  COc1cc2c(cc1OC)C1=NOC(CN3CCC(c4c[nH]c5ccc(O)cc45)CC3)C1CO2 (racemic)      2.60
3  CC(=O)Nc1ccc2c(c1)OCC1C2=NOC1CN1CCC(c2c[nH]c3ccc(F)cc23)CC1 (centres unmarked)      2.50
4  COc1cc2c(cc1OC)C1=NOC(CN3CC=C(c4c[nH]c5ccc(O)cc45)CC3)C1CO2 (racemic)      2.80

Could you tell me which log10(IC50) is on file for COc1cc2c(cc1OC)C1=NOC(CN3CC=C(c4c[nH]c5ccc(F)cc45)CC3)C1CO2 (racemic) ?
2.60

###

# Study Target: Human 5HT1A receptor (Homo sapiens)
# Construct: expressed in transfected cells; host or cells: L929 cells (stably transfected)
# Sequence (P08908 whole entry): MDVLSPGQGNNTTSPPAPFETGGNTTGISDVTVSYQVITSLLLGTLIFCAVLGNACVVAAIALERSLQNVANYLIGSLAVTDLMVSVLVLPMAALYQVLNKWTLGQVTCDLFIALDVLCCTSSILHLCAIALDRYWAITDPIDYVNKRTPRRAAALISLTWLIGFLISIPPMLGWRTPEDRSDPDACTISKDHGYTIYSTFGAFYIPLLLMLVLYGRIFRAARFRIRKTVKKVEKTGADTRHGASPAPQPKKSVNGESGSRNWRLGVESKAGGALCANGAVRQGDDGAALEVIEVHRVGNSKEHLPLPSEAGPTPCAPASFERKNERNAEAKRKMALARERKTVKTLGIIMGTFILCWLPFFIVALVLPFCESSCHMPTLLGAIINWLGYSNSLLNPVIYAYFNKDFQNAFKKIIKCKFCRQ
# Assay Protocol: Binding experiment for 5-HT1A receptor ([3H]8OHDPAT)
# Study Conditions: transfected L929 cell membranes, [3H]8OHDPAT
Rule: condition met for pIC50 5-HT1A not less than 8, condition not met for anything less.

Worked examples, 6 compounds total:
>>> df
                                   compound                         study_target              class
0  COc1cc2c(cc1OC)C1=NOC(CNCCCc3c[nH]c4ccc(F)cc34)C1CO2 (single isomer, unassigned) [Compound 5]  Human 5HT1A receptor (Homo sapiens)      condition met
1  Nc1ccc2c(c1)OCC1C2=NOC1CN1CC=C(c2c[nH]c3ccc(F)cc23)CC1 (racemic)  Human 5HT1A receptor (Homo sapiens)  condition not met
2  COc1cc2c(cc1OC)C1=NOC(CN3CC=C(c4c[nH]c5ccccc45)CC3)C1CO2 (single isomer, unassigned) [Compound 14]  Human 5HT1A receptor (Homo sapiens)      condition met
3  COc1cc2c(cc1OC)C1=NOC(CN3CCC(c4c[nH]c5cc(F)ccc45)CC3)C1CO2 (single isomer, unassigned) [Compound 35]  Human 5HT1A receptor (Homo sapiens)  condition not met
4  COc1cc2c(cc1OC)C1=NOC(CN3CCC(c4c[nH]c5ccc(F)cc45)CC3)C1CO2 (single isomer, unassigned) [Compound 15]  Human 5HT1A receptor (Homo sapiens)  condition not met
5  COc1cc2c(cc1OC)C1=NOC(CNCCCc3c[nH]c4ccc(F)cc34)C1CO2 (single isomer, unassigned) [Compound 4]  Human 5HT1A receptor (Homo sapiens)      condition met

API: above_or_equal(metric=pIC50 5-HT1A, cutoff=8) for item COc1cc2c(cc1OC)C1=NOC(CN3CC=C(c4c[nH]c5ccc(Br)cc45)CC3)C1CO2 (racemic)
condition met

API: above_or_equal(metric=pIC50 5-HT1A, cutoff=8) for item CCNC(=O)OCCOc1cc2c(cc1OC)C1=NOC(CN3CCC(c4c[nH]c5ccc(F)cc45)CC3)C1CO2 (racemic)
condition met

API: above_or_equal(metric=pIC50 5-HT1A, cutoff=8) for item COc1cc2c(cc1OC)C1=NOC(CN3CC=C(c4c[nH]c5ccc(F)cc45)CC3)C1CO2 (single isomer, unassigned) [Compound 12]
condition not met

API: above_or_equal(metric=pIC50 5-HT1A, cutoff=8) for item Fc1ccc2[nH]cc(C3CCN(CC4ON=C5c6cc7c(cc6OCC54)OCCO7)CC3)c2c1 (single isomer, unassigned)
condition met

API: above_or_equal(metric=pIC50 5-HT1A, cutoff=8) for item COc1cc2c(cc1OC)C1=NOC(CN3CCC(c4c[nH]c5ccccc45)CC3)C1CO2.O=C(O)C(=O)O (single isomer, unassigned)
condition not met

###

Entries annotated with measured pIC50 5-HT1A
# Study Target: Human 5HT1A receptor (Homo sapiens)
# Construct: expressed in transfected cells; host or cells: L929 cells (stably transfected)
# Assay Protocol: Binding experiment for 5-HT1A receptor ([3H]8OHDPAT)
# Study Conditions: transfected L929 cell membranes, [3H]8OHDPAT
I only need the number, thanks.

Examples with answers:
>>> df
                                   compound  recorded_endpoint  observed
0  COc1cc2c(cc1OC)C1=NOC(CN3CC=C(c4c[nH]c5ccc(C)cc45)CC3)C1CO2 (racemic)       pIC50 5-HT1A       8.2
1  Fc1ccc2[nH]cc(C3=CCN(CC4ON=C5c6ccc(NCCN7CCCC7)cc6OCC54)CC3)c2c1 (racemic)       pIC50 5-HT1A       8.1
2  COc1ccc2[nH]cc(C3=CCN(CC4ON=C5c6cc(OC)c(OC)cc6OCC54)CC3)c2c1 (racemic)       pIC50 5-HT1A       8.1
3  COc1cc2c(cc1OC)C1=NOC(CN3CC=C(c4c[nH]c5ccc([N+](=O)[O-])cc45)CC3)C1CO2 (racemic)       pIC50 5-HT1A       8.1
4  COc1cc2c(cc1OC)C1=NOC(CN3CCC(c4c[nH]c5cccc(F)c45)CC3)C1CO2 (racemic)       pIC50 5-HT1A       8.2

Below: the item to evaluate.
Could you tell me which pIC50 5-HT1A is on file for COc1cc2c(cc1OC)C1=NOC(CN3CCC(c4c[nH]c5cc(F)ccc45)CC3)C1CO2 (racemic) [Compound 26] ?
8.2
